From: patent US8415351B2

Target: HCV polymerase 1A (Δ21 NS5B, H77) (Hepatitis C virus genotype 1a)
Construct: 20 to 50 nM Δ21 NS5B
Sequence (P27958 2421-2990, stated change not applied): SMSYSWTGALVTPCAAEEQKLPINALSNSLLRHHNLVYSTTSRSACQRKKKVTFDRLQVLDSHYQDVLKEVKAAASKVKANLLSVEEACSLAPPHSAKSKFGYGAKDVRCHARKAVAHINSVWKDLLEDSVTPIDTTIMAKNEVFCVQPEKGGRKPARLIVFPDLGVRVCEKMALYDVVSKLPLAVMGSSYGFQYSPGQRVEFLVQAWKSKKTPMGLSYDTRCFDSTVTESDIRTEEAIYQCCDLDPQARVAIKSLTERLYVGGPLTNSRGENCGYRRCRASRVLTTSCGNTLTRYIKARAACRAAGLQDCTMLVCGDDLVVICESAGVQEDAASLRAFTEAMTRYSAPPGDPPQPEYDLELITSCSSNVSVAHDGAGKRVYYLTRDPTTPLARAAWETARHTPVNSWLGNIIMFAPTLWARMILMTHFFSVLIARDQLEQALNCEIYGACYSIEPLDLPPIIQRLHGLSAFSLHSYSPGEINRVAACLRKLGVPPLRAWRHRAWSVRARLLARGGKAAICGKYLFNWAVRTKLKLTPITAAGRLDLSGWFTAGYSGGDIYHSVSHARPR
Assay: biochemical
Conditions: IC50 1a
pIC50: −log10 of the molar value.
property.name: pIC50

In the examples that follow, each entry is paired with its recorded pIC50.
compound: C=CCN1C(=O)CCN(c2cc(C(=O)Nc3ccc(N(CC=C)S(C)(=O)=O)cc3)c(OC)c(C(C)(C)C)c2)C1=O [IA-L3-1.118]
pIC50: < 6.00

compound: COc1c(C(=O)Nc2ccc(NS(=O)(=O)CCN3CCOCC3)cc2)cc(N2CCC(=O)NC2=O)cc1C(C)(C)C [IA-L3-1.58]
pIC50: 6.00 to 7.00

compound: COc1c(C(=O)Nc2ccc(NS(C)(=O)=O)c([N+](=O)[O-])c2)cc(N2CCC(=O)NC2=O)cc1C(C)(C)C [IA-L3-1.87]
pIC50: < 6.00

compound: COc1c(-c2ccc(/C(C)=N/NS(C)(=O)=O)cc2)cc(-n2ccc(=O)[nH]c2=O)cc1C(C)(C)C [IB-L0-1.5]
pIC50: 7.00 to 8.00

compound: COc1cc(NS(C)(=O)=O)ccc1NC(=O)c1cc(N2CCC(=O)NC2=O)cc(C(C)(C)C)c1O [IA-L3-1.119]
pIC50: 7.00 to 8.00

compound: COc1c(-c2ncc(-c3cccc([N+](=O)[O-])c3)o2)cc(N2CCC(=O)NC2=O)cc1C(C)(C)C [IA-L0-1.10]
pIC50: < 6.00

Supply reported pIC50 belonging to this compound: COc1c(-c2ccc3cc(CNS(C)(=O)=O)sc3c2)cc(-n2ccc(=O)[nH]c2=O)cc1C(C)(C)C [IB-L0-2.40] 6.00 to 7.00
